- measurementTarget: PK R510Q (Homo sapiens, UniProt P30613, R510Q)
- Sequence (P30613 whole entry R510Q): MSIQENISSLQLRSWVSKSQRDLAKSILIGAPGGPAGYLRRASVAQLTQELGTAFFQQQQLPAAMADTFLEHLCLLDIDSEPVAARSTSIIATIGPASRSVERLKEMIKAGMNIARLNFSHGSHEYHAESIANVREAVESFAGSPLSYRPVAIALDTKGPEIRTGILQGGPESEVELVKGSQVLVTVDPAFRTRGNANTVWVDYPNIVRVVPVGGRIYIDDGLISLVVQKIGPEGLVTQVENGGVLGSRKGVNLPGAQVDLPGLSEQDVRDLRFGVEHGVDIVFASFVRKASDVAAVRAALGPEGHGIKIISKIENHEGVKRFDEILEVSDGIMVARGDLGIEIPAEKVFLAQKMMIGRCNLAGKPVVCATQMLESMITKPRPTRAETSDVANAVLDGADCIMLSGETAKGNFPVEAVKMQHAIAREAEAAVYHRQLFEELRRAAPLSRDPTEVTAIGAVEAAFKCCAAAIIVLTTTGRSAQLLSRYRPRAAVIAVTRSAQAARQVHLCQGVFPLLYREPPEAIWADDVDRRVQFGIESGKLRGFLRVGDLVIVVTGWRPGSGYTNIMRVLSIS
- method: PKR Mutant Assay (R510Q), LDH-coupled, absorbance 340 nm
- Assay type: biochemical
- runConditions: mutant PKR R510Q enzyme activation
- Description: PKR (WT or mutant) enzyme stock solution was diluted to prepare a 1.25× Reaction Mix (without ADP). 1 μL of test compound was first added to the wells followed by 40 μL of 1.25× Reaction Mix (without ADP) and incubated at room temperature (25° C.) for 60 min. The reaction was initiated with 10 μL ADP, bringing the final Reaction Mix to 1x, and the reaction progress was measured as changes in absorbance at 340 nm wavelength at room temperature. […]
Item-by-item account of AC50

| smilesString | AC50 |
| --- | --- |
| Cn1cc(S(=O)(=O)c2ccc3c4cnn(Cc5cccc(C(N)=O)c5)c(=O)c4n(C)c3c2)cn1 | < 300 nM |
| Cc1c2c(=O)n(Cc3cccc(N)n3)ncc2c2sc(Cc3cc[nH]n3)cn12 | < 300 nM |
| COc1cccc(Cn2ncc3c4ncccc4n(C)c3c2=O)c1 | > 800 nM |
| COc1cccc(Cn2ncc3c(c(C#CCO)n4cc(C)sc34)c2=O)c1 | 301 to 800 nM |
| COC(=O)c1ccc2c(c1)c1cnn(Cc3cccc(OC)c3)c(=O)c1n2C | > 800 nM |

---

- measurementTarget: PK R510Q (Homo sapiens, UniProt P30613, R510Q)
- method: PKR Mutant Assay (R510Q), LDH-coupled, absorbance 340 nm
- Assay type: biochemical
- runConditions: mutant PKR R510Q enzyme activation

| smilesString | AC50 |
| --- | --- |
| CCc1ccc2c3cnn(Cc4cccc(OC)c4)c(=O)c3n(C)c2c1 | > 800 nM |
| Cn1c2cc(Cc3cscn3)sc2c2cnn(Cc3ccccn3)c(=O)c21 | < 300 nM |
| COc1cccc(Cn2ncc3c4nn(Cc5ccccc5)cc4n(C)c3c2=O)c1 | < 300 nM |
| COc1cccc(Cn2ncc3c4c(Br)cccc4n(C)c3c2=O)c1 | > 800 nM |
| Cn1c2cc(Cc3cccc4cn[nH]c34)sc2c2cnn(Cc3cscn3)c(=O)c21 | < 300 nM |
| COc1cccc(Cn2ncc3c4cc(O)ccc4n(C)c3c2=O)c1 | > 800 nM |
| Cc1c2c(=O)n(Cc3ccn(C)n3)ncc2n2cc(CO)sc12 | > 800 nM |
| Cn1c2ccc(S(C)(=O)=O)cc2c2cnn(Cc3cccc(C(N)=O)c3)c(=O)c21 | > 800 nM |
| COc1cccc(Cn2ncc3c4ccncc4n(C)c3c2=O)c1 | < 300 nM |
| Cc1c2c(=O)n(Cc3ccccn3)ncc2c2sc(Cc3cscn3)cn12 | < 300 nM |
| C=Cc1ccc2c3cnn(Cc4cccc(OC)c4)c(=O)c3n(C)c2c1 | > 800 nM |
| COc1cccc(Cn2ncc3c4n[nH]cc4n(C)c3c2=O)c1 | > 800 nM |
| COc1cccc(Cn2ncc3c4cc(CO)ccc4n(C)c3c2=O)c1 | > 800 nM |
| Cn1c2cc(S(=O)(=O)c3ccccc3)ccc2c2cnn(Cc3cccc(C(N)=O)c3)c(=O)c21 | < 300 nM |
| COc1cccc(Cn2ncc3c4cc(Br)ccc4n(C)c3c2=O)c1 | > 800 nM |
| COc1cccc(Cn2ncc3c4cc(C#N)ccc4n(C)c3c2=O)c1 | > 800 nM |
| Cn1c2cc(S(=O)(=O)c3cc[nH]n3)ccc2c2cnn(Cc3cccc(C(N)=O)c3)c(=O)c21 | < 300 nM |
| Cc1cccc(Cn2ncc3c4sc(Cc5ncco5)cc4n(C)c3c2=O)c1 | < 300 nM |
| Cc1nc2c3cnn(Cc4ccccc4)c(=O)c3n(C)c2s1 | > 800 nM |
